The measured values listed here are drawn from patent US7205295B2.

- tested.on: PI3Kγ (p101/p110γ protein) (Homo sapiens)
- Construct: HA
- Sequence (P48736 whole entry, species assumed): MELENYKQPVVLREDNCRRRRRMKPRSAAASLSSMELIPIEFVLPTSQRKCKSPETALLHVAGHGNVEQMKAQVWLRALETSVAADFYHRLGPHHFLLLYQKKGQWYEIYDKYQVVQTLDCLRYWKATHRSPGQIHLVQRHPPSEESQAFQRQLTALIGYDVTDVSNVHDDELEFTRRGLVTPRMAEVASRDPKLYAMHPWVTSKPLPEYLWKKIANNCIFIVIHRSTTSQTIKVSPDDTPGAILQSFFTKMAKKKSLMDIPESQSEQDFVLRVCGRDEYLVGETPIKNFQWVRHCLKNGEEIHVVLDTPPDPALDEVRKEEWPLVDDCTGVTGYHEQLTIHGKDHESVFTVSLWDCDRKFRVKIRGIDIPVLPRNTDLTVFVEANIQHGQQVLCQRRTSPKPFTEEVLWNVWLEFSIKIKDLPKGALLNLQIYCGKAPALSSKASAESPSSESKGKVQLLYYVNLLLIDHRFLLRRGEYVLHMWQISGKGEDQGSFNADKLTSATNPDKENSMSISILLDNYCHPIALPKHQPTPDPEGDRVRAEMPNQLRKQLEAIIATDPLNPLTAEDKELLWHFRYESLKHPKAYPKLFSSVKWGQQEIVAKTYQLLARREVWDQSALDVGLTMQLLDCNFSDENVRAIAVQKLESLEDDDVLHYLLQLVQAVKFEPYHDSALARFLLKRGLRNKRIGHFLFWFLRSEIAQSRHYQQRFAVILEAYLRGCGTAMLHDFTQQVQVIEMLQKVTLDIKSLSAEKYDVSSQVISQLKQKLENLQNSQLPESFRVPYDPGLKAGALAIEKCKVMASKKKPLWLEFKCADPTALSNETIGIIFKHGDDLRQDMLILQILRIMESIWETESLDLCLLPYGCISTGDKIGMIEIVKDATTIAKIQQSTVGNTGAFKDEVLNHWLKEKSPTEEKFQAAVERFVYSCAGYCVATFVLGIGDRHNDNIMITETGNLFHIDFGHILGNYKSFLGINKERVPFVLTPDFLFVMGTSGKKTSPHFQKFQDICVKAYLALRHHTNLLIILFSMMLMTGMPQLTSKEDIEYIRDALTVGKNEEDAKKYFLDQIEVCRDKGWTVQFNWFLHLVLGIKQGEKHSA
- Sequence (Q8WYR1 whole entry partner, species assumed): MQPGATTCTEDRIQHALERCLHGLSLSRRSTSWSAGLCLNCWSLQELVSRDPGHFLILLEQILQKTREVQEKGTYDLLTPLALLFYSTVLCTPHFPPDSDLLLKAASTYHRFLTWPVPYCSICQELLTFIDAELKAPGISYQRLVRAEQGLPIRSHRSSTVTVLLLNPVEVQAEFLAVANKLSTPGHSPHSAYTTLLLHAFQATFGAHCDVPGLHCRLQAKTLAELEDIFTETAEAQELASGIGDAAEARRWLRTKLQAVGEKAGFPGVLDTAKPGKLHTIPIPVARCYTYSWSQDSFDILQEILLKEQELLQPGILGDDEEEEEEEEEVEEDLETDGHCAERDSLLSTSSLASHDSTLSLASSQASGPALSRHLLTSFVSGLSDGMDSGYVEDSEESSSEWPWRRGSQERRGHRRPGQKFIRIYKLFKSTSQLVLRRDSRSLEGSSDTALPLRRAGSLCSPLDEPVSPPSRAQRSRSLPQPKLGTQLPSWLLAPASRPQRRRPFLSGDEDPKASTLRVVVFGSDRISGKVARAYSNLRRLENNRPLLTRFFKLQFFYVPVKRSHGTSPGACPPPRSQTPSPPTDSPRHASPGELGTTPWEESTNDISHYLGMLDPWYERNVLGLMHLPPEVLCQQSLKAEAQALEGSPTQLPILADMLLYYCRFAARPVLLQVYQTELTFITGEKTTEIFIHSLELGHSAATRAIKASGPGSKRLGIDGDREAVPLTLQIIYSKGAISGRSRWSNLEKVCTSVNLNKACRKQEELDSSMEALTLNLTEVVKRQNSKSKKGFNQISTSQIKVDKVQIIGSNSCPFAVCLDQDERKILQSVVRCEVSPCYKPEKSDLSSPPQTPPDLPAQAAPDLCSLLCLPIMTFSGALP
- experiment.description: PI3Kγ In Vitro Kinase Assay
- settings: purified recombinant p101/p110γ with G protein β1/γ2 subunits; 20 μM ATP, 25 μM PIP2; 20 minutes at room temperature
Please provide measured pIC50 for the entries that follow.
Numbers only, as −log10 of the molar value.

See these solved cases before continuing.
compound	pIC50
Cc1cc(C)cc(CCN2C(=O)COc3ccc(C=C4SC(=S)NC4=O)cc32)c1	8.70
Cc1cc(C)cc(CN2C(=O)COc3ccc(C=C4SC(=S)NC4=O)cc32)c1 [Example 14]	8.30
O=C1NC(=S)SC1=Cc1cc(F)c2c(c1)N(Cc1cc(Br)cc(Br)c1)C(=O)CO2	7.44
O=C1NC(=S)SC1=Cc1cc(F)c2c(c1)N(CCc1ccc(Cl)c(Cl)c1)C(=O)CO2	7.85

Items follow; give pIC50 for each.
1. O=C1NC(=S)SC1=Cc1ccc2c(c1)N(CCc1ccccc1C(F)(F)F)C(=O)CO2
2. O=C1COc2ccc(C=C3NC(=S)NC3=O)cc2N1
3. CCc1cc(CN2C(=O)COc3ccc(C=C4SC(=S)NC4=O)cc32)cc(C(C)(C)C)c1
4. Cc1cc(CN2C(=O)COc3ccc(C=C4SC(=O)NC4=O)cc32)cc(C)n1
5. CCN(CC)Cc1ccc(CN2C(=O)COc3c(F)cc(C=C4SC(=S)NC4=O)cc32)cc1
6. CS(=O)(=O)c1ccc(CN2C(=O)COc3ccc(C=C4SC(=S)NC4=O)cc32)cc1 [Example 192]
7. O=C1NC(=S)SC1=Cc1ccc2c(c1)N(Cc1ccncc1)C(=O)CO2

1: 8.40; 2: 5.44; 3: 7.31; 4: 7.37; 5: 7.85; 6: 8.10; 7: 7.21

Items follow; give pIC50 for each.
1. O=C1NC(=S)SC1=Cc1ccc2c(c1)N(Cc1ccc(F)c(F)c1)C(=O)CO2
2. Cc1cc(CN2C(=O)COc3c(F)cc(C=C4SC(=S)NC4=O)cc32)c(C)o1
3. CC(C)(C)c1cc(CON2C(=O)COc3ccc(C=C4SC(=S)NC4=O)cc32)cc(C(C)(C)C)n1
4. COc1cccc(CCN2C(=O)COc3ccc(C=C4SC(=S)NC4=O)cc32)c1

[8.52, 7.60, 7.13, 8.52]
